target: P-gp (Homo sapiens, UniProt P08183)
Sequence (P08183 whole entry): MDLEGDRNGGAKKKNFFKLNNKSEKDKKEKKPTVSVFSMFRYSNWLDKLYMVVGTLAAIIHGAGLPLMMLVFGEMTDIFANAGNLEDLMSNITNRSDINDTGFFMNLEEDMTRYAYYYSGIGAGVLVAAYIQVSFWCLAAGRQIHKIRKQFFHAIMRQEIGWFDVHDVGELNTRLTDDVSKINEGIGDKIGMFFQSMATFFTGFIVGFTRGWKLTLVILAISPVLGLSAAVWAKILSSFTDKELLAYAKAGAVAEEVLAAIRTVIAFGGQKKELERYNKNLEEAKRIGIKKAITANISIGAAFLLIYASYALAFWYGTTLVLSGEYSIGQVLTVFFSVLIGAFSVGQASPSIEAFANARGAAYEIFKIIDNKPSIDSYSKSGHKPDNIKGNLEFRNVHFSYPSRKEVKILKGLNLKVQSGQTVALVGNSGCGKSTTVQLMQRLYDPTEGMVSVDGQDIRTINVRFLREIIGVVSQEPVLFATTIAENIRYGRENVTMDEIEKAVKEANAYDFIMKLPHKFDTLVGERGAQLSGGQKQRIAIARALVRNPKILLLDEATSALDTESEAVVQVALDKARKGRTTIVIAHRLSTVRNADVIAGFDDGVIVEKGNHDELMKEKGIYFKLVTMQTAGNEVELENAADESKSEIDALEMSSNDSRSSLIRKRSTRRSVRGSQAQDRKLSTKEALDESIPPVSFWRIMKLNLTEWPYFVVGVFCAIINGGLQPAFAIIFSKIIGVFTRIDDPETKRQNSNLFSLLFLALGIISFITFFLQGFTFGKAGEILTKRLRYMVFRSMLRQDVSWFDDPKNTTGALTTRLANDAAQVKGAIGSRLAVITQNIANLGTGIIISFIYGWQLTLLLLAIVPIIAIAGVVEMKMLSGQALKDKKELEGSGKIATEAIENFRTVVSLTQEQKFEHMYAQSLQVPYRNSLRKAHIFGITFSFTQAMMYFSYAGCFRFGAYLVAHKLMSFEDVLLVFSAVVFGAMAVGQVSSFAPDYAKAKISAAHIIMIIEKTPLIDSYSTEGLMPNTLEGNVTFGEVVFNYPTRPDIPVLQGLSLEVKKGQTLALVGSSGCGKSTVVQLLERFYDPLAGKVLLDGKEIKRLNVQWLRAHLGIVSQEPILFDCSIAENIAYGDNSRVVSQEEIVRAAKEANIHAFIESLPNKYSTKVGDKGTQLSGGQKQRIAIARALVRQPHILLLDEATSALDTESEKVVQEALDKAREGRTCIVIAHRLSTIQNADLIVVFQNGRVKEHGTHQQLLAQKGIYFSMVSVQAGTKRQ
Assay endpoint: pIC50
Scale for pIC50: -log10 of concentration given in mol/L; no unit attached.

Fill in: pIC50 on P-gp (Homo sapiens, UniProt P08183), entry C[C@H](Nc1ncnc(N)c1C#N)c1cc2ncc(Cl)n2nc1-c1ccccc1 [Amdizalisib] 4.64

---

assay: Single-dose PK in SD rats (IV/PO); set-up: species or system SD rat; conditions: both sexes, SD, rat, in vivo, po, 1 mg/kg
Assay endpoint: AUC(0-t) (ng·h/mL)
Provide the reading as a plain figure in ng·h/mL.

Return AUC(0-t) for the following compound: C[C@H](Nc1ncnc(N)c1C#N)c1cc2ncc(Cl)n2nc1-c1ccccc1 [Amdizalisib] 1140
